Each recorded value in this set is attributed to ChEMBL document CHEMBL1139774.

Each entry below carries its recorded Ki.
target-system: UniProt:P41145
Sequence (P41145 whole entry): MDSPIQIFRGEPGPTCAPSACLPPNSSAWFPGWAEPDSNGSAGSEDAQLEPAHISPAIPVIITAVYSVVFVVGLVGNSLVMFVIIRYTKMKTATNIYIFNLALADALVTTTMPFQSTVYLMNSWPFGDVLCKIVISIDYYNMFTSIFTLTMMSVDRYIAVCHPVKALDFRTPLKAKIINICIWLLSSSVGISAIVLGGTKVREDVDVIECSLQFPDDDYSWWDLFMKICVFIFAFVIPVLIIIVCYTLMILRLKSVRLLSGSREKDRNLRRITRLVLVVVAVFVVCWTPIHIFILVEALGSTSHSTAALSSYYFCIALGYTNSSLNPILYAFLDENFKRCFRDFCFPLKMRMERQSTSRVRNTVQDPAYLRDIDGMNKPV
assay-explanation: Displacement of [3H]U-69593 from human recombinant kappa opioid receptor expressed in CHO cells
Please reply with the bare figure in nM and do not write the unit itself.

See these solved cases before continuing.
1. COc1ccc2c(c1OC)[C@]13CCN(CC4CC4)[C@H](C2)[C@]1(O)Cc1c([nH]c2ccccc12)C3
1440
2. COc1c(O)ccc2c1[C@]13CCN(C)[C@H](C2)[C@]1(O)Cc1c([nH]c2ccccc12)C3
582
3. COc1c(O)ccc2c1[C@]13CCN(CC4CC4)[C@H](C2)[C@]1(O)Cc1c([nH]c2ccccc12)C3
79

Item CN1CC[C@]23c4c5ccc(O)c4O[C@H]2c2[nH]c4ccccc4c2C[C@@]3(O)[C@H]1C5 [OXYMORPHINDOLE CHLORIDE] ; assay system UniProt:P41145; Ki reported as 515

----------
target-system: Mu-type opioid receptor (Rattus norvegicus)
Sequence (P33535 whole entry): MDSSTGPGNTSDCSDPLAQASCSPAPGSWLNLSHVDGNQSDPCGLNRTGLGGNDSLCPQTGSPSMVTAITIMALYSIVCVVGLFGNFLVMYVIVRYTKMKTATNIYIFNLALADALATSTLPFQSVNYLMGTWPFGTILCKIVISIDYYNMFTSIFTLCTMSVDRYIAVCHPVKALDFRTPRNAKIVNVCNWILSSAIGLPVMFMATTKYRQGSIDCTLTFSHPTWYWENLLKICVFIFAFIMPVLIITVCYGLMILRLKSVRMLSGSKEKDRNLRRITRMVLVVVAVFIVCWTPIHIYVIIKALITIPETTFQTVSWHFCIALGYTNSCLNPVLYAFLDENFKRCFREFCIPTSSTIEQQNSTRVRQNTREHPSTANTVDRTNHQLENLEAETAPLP
assay-explanation: Displacement of [3H]DAMGO from rat recombinant mu opioid receptor expressed in C6 cells
log10 of Ki overview
All values: base-10 log of Ki in nM.

For orientation, consider the following solved cases.
1. COc1c(O)ccc2c1[C@]13CCN(C)[C@H](C2)[C@]1(O)Cc1c([nH]c2ccccc12)C3
2.68
2. COc1c(O)ccc2c1[C@]13CCN(CC4CC4)[C@H](C2)[C@]1(O)Cc1c([nH]c2ccccc12)C3
1.76
3. CN1CC[C@]23c4c5ccc(O)c4O[C@H]2c2[nH]c4ccccc4c2C[C@@]3(O)[C@H]1C5 [OXYMORPHINDOLE CHLORIDE]
2.02

# log10 of Ki (molecule: "COc1ccc2c(c1OC)[C@]13CCN(C)[C@H](C2)[C@]1(O)Cc1c([nH]c2ccccc12)C3" ) is 3.88

Per the record, "COc1ccc2c(c1OC)[C@]13CCN(CC4CC4)[C@H](C2)[C@]1(O)Cc1c([nH]c2ccccc12)C3" has log10 of Ki of 3.24

----------
target-system: Delta-type opioid receptor (Rattus norvegicus)
Sequence (P33533 whole entry): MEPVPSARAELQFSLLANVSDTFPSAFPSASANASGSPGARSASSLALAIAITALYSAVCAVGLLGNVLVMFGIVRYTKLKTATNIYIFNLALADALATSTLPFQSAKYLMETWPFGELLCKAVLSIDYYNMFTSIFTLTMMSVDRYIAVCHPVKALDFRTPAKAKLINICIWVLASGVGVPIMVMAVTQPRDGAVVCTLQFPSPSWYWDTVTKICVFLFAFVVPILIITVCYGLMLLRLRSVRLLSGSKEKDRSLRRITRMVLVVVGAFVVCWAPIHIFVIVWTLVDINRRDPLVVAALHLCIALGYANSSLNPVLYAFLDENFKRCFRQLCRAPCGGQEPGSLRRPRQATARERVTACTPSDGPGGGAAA
assay-explanation: Displacement of [3H]p-Cl-DPDPE from rat recombinant delta opioid receptor expressed in C6 cells
pKi: −log10 of the molar value.
Outcome: 1 for pKi of at least 8; 0 for anything lower.

// known answers, use as guide
1) COc1ccc2c(c1OC)[C@]13CCN(CC4CC4)[C@H](C2)[C@]1(O)Cc1c([nH]c2ccccc12)C3
0
2) COc1ccc2c(c1OC)[C@]13CCN(C)[C@H](C2)[C@]1(O)Cc1c([nH]c2ccccc12)C3
0
3) COc1c(O)ccc2c1[C@]13CCN(C)[C@H](C2)[C@]1(O)Cc1c([nH]c2ccccc12)C3
1
4) COc1c(O)ccc2c1[C@]13CCN(CC4CC4)[C@H](C2)[C@]1(O)Cc1c([nH]c2ccccc12)C3
1

Could you now look at the following molecule, please?
Q. Given the entry CN1CC[C@]23c4c5ccc(O)c4O[C@H]2c2[nH]c4ccccc4c2C[C@@]3(O)[C@H]1C5 [OXYMORPHINDOLE CHLORIDE] , answer whether its pKi meets or surpasses 8.
A. 1

----------
Organism: Rattus norvegicus
assay-explanation: Selectivity for rat recombinant delta opioid receptor over rat recombinant mu opioid receptor
Entries whose Ratio Ki is below 100 take True; entries at or above 100 take False.

Recorded results for 4 compounds are shown here.
1) COc1c(O)ccc2c1[C@]13CCN(CC4CC4)[C@H](C2)[C@]1(O)Cc1c([nH]c2ccccc12)C3
False
2) COc1ccc2c(c1OC)[C@]13CCN(C)[C@H](C2)[C@]1(O)Cc1c([nH]c2ccccc12)C3
False
3) COc1c(O)ccc2c1[C@]13CCN(C)[C@H](C2)[C@]1(O)Cc1c([nH]c2ccccc12)C3
False
4) COc1ccc2c(c1OC)[C@]13CCN(CC4CC4)[C@H](C2)[C@]1(O)Cc1c([nH]c2ccccc12)C3
True

Q. Quick check: Ratio Ki of CN1CC[C@]23c4c5ccc(O)c4O[C@H]2c2[nH]c4ccccc4c2C[C@@]3(O)[C@H]1C5 [OXYMORPHINDOLE CHLORIDE] under 100?
A. False
